Target: human IgEλ (U266 derived) (human, UniProt P01854 1-546)
Sequence (P01854 whole entry): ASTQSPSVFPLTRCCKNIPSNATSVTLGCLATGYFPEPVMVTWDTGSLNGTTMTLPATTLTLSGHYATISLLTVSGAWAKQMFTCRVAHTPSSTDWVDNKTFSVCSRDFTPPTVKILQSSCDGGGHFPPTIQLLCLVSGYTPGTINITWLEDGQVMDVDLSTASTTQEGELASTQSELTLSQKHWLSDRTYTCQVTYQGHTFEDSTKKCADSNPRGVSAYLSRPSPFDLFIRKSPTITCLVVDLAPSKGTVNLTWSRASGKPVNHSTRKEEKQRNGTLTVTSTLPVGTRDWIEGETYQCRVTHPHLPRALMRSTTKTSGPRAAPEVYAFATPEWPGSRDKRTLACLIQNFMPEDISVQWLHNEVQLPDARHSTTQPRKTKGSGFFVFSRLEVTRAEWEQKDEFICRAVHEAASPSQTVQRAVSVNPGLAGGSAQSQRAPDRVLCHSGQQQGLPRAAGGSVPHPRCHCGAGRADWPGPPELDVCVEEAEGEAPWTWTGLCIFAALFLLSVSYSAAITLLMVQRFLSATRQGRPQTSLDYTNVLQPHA
Experiment: HTRF receptor-ligand competition, scFv titrated; Eu-cryptate human IgE (U266) binding to human FcεRI-Fc; geomean
Method: Purified scFv were tested in a receptor-ligand binding HTRF® (Homogeneous Time-Resolved Fluorescence) assay format for inhibition of either human IgE (U266-derived [Ikeyama et. al. 1986. Molecular Immunology 23 (2); p159-167]) or cyno IgE (recombinant, see materials and methods) labelled with europium cryptate (CIS bio International 62EUSPEA), binding to human FcεR1-Fc (in house NS0 cell produced). Example scFv potency data is included in Table 5a […]
Consider the following binders and their measured IC50 readings.
// note: answer is a bare numeric in nM

>  <binder>
Antibody 27 (scFv) (scFv, V domains shown, purified scFv) VH: EVQLLESGGGLVQPGGSLRLSCAASGFTFSSYAMSWVRQAPGKGLEWVSAISGSGGRTYYADSVKGRFTISRDNSKNTLYLQMNSLRAEDTAVYYCARSTYFASTRGFDYWGRGTLVTVSS VL: SYVLTQPPSVSVSPGQTASITCSGDKLGDTYASWYRQRSGQSPVLVIYQDDKRPSGIPERFSGSNSGNTATLTISGTHTMDEADYYCLAWDTRTSGAVFGGGTKLTVL

>  <number>
2

$$$$

Now turn to the next binder.
// sample Antibody 21 (scFv) (scFv, V domains shown, purified scFv) VH: EVQLLESGGGLVQPGGSLRLSCAASGFTFSSYAMSWVRQAPGKGLEWVSAISGSGGRTYYADSVKGRFTISRDNSKNTLYLQMNSLRAEDTAVYYCARLTFPAITRGFDYWGRGTLVTVSS VL: SYVLTQPPSVSVSPGQTASITCSGDKLGDKYASWYRQRSGQSPVLVIYQDDKRPSGIPERFSGSNSGNTATLTISGTHTMDEADYYCLAWDTRTSGAVFGGGTKLTVL , its IC50 was 4
